system: Salmonella enterica typhimurium; assay: growth AUC normalised to DMSO control (fraction of control); higher = less growth inhibition, active = hit call of the paper; conditions: 20 µM
Structures can show the parent of a compound that is named as a salt.
Criterion: growth AUC normalised to DMSO control meeting or surpassing 1. Met: true. Not met: false.

Input: Check if growth AUC normalised to DMSO control >= 1 (inclusive). Item: N=C(N)NCc1cccc(I)c1 [Iobenguane sulfate]
Output: true

Input: Check if growth AUC normalised to DMSO control >= 1 (inclusive). Item: Nc1ccc(C(=O)O)c(O)c1
Output: true

Input: Check if growth AUC normalised to DMSO control >= 1 (inclusive). Item: CCc1ccc(CCOc2ccc(CC3SC(=O)NC3=O)cc2)nc1 (stereo not given)
Output: false
